composite z-score values for the molecules below.
ASSAY PROTOCOL: small-molecule microarray binders of probe aEGFR, primary screen, biochemical, biotinylated probe, 635/667 nm fluorescence (AID 1097);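 note: probe is a biotinylated anti-EGFR antibody binding compounds printed on slides; score combines fluorescence near 667 nm and signal to noise of each spot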
TEST SETTINGS: higher = more signal

These solved cases illustrate the format of a correct answer.
[N-]=[N+]=NCc1ccccc1C[C@]1(C(=O)N2CCOCC2)N=C(c2ccc(OCCCO)cc2)O[C@H]1c1ccccc1CN=[N+]=[N-]	0.732
O=C1O[C@H](c2ccccc2)[C@H](c2ccccc2)N2[C@H]1[C@@H](C(=O)N1CCN(c3ncccn3)CC1)[C@]1(C(=O)Nc3ccccc31)[C@H]2c1ccc(O)cc1	-0.0936
CCOC(=O)C1=CC[C@@H](c2ccccc2)N(S(=O)(=O)c2ccc(C)cc2)[C@H]1C#N	0.0985

Now for a further molecule.
Input CC(C)=CCN(C(=O)C#Cc1ccccc1)[C@H](CO)c1ccccc1 , output reported composite z-score.
-0.0302
